ASSAY_EXPLANATION: activity coefficient (dimensionless); of the first substance listed, at infinite dilution; xn = mol fraction of the nth substance listed
EXPERIMENTAL_PARAMETERS: 338.15 K; 101 kPa; Liquid; Chromatography; x1 = 0
ASSAY_ENDPOINT: activity coefficient

1. C=CCCCCC [1-heptene] + CCCC[N+]1(C)CCCC1.N#C[B-](C#N)(C#N)C#N | 10
2. CCCO [propan-1-ol] + CCCC[N+]1(C)CCCC1.N#C[B-](C#N)(C#N)C#N | 1.27
3. C1CCCCC1 [cyclohexane] + CCCC[N+]1(C)CCCC1.N#C[B-](C#N)(C#N)C#N | 7.45

[1] CCCCCCCC [octane] + CCCC[N+]1(C)CCCC1.N#C[B-](C#N)(C#N)C#N
[2] C1=CCCCC1 [cyclohexene] + CCCC[N+]1(C)CCCC1.N#C[B-](C#N)(C#N)C#N
Ask | I would appreciate it if you could say which entry, 1 or 2 , has the lower activity coefficient value. Your answer should be the label attached to the chosen record.
Reply | 2
(2: 3.93, 1: 27.5)

----------
ASSAY_EXPLANATION: activity coefficient (dimensionless); of the first substance listed, at infinite dilution; xn = mol fraction of the nth substance listed
EXPERIMENTAL_PARAMETERS: 318.15 K; 101 kPa; Liquid; Chromatography; x1 = 0
ASSAY_ENDPOINT: activity coefficient

[P] c1ccsc1 [thiophene] + CCCC[N+]1(C)CCCC1.N#C[B-](C#N)(C#N)C#N
[Q] C#CCCCCC [1-heptyne] + CCCC[N+]1(C)CCCC1.N#C[B-](C#N)(C#N)C#N
[R] CCO [ethanol] + CCCC[N+]1(C)CCCC1.N#C[B-](C#N)(C#N)C#N
[S] C=CCCCCCC [oct-1-ene] + CCCC[N+]1(C)CCCC1.N#C[B-](C#N)(C#N)C#N
[T] C=CCCCCC [1-heptene] + CCCC[N+]1(C)CCCC1.N#C[B-](C#N)(C#N)C#N
Ask | Using the list above, order everything by rising activity coefficient. Arrange the labels as the request states and list them.
Reply | P, R, Q, T, S
(P: 0.659, R: 1.29, Q: 3.49, T: 10.7, S: 15.4)

----------
ASSAY_EXPLANATION: activity coefficient (dimensionless); of the first substance listed, at infinite dilution; xn = mol fraction of the nth substance listed
EXPERIMENTAL_PARAMETERS: 358.15 K; 101 kPa; Liquid; Chromatography; x1 = 0
ASSAY_ENDPOINT: activity coefficient

Here's what some known entries look like.
1. C1=CCCCC1 [cyclohexene] + CCCC[N+]1(C)CCCC1.N#C[B-](C#N)(C#N)C#N | 3.73
2. CCCCO [butan-1-ol] + CCCC[N+]1(C)CCCC1.N#C[B-](C#N)(C#N)C#N | 1.33
3. c1ccsc1 [thiophene] + CCCC[N+]1(C)CCCC1.N#C[B-](C#N)(C#N)C#N | 0.711
4. CCCCCCC [heptane] + CCCC[N+]1(C)CCCC1.N#C[B-](C#N)(C#N)C#N | 17.5
5. CCC(=O)CC [pentan-3-one] + CCCC[N+]1(C)CCCC1.N#C[B-](C#N)(C#N)C#N | 0.719
6. C1CCCCCC1 [cycloheptane] + CCCC[N+]1(C)CCCC1.N#C[B-](C#N)(C#N)C#N | 8.21
7. Cc1cccc(C)c1 [1,3-dimethylbenzene] + CCCC[N+]1(C)CCCC1.N#C[B-](C#N)(C#N)C#N | 1.64
8. CC(C)=O [acetone] + CCCC[N+]1(C)CCCC1.N#C[B-](C#N)(C#N)C#N | 0.468

[P] CCCOCCC [dipropyl ether] + CCCC[N+]1(C)CCCC1.N#C[B-](C#N)(C#N)C#N
[Q] CCO [ethanol] + CCCC[N+]1(C)CCCC1.N#C[B-](C#N)(C#N)C#N
Ask | When their activity coefficient values are compared, which is larger, P or Q ? Your answer should be the label attached to the chosen record.
Reply | P

[I] CC(C)OC(C)C [diisopropyl ether] + CCCC[N+]1(C)CCCC1.N#C[B-](C#N)(C#N)C#N
[II] CC(C)CC(C)(C)C [2,2,4-trimethylpentane] + CCCC[N+]1(C)CCCC1.N#C[B-](C#N)(C#N)C#N
Ask | When their activity coefficient values are compared, which is larger, I or II ? Your answer should be the label attached to the chosen record.
Reply | II
